B1: library; numbered along this chain (parent)
chain: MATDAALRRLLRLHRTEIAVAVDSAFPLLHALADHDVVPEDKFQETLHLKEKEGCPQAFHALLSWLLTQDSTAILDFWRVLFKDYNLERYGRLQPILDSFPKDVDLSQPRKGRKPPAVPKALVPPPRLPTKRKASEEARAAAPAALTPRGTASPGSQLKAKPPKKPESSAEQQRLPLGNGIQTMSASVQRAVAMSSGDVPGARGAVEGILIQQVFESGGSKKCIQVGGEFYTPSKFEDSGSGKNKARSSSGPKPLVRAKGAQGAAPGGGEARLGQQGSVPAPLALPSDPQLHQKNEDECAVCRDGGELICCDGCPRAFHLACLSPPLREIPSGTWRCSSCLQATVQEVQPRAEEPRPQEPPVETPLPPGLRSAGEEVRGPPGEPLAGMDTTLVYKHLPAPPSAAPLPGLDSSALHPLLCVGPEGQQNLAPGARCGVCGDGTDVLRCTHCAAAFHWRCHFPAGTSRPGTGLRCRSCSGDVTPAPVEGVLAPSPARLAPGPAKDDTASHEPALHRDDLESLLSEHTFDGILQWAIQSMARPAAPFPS

- Variants of: B1
- EXPERIMENT: AIRE transcriptional activation functional score (insulin promoter-GFP; nonsense median 0, synonymous median 1) (normalised score); higher = higher AIRE activity (more reporter activation)
- CONDITION: with insulin promoter-GFP reporter in HEK293
MEASURED_METRIC: AIRE transcriptional activation functional score
// response body must contain only the number

INSERT INTO results (mutant_id, measured_value) VALUES
  ('T16F', -0.112),
  ('P39L', -0.0747),
  ('W335K', 1.12),
  ('T72I', 0.104);

Ask: What value of AIRE transcriptional activation functional score has been recorded for this entry: `Y85D`
Result: 0.0634

Ask: What value of AIRE transcriptional activation functional score has been recorded for this entry: `R445D`
Result: 0.596

Ask: What value of AIRE transcriptional activation functional score has been recorded for this entry: `H448T`
Result: 1.54

Ask: What value of AIRE transcriptional activation functional score has been recorded for this entry: `A500K`
Result: 0.785

Ask: What value of AIRE transcriptional activation functional score has been recorded for this entry: `G305H`
Result: 0.264

Ask: What value of AIRE transcriptional activation functional score has been recorded for this entry: `F543S`
Result: 0.493

Ask: What value of AIRE transcriptional activation functional score has been recorded for this entry: `G421H`
Result: -0.132

Ask: What value of AIRE transcriptional activation functional score has been recorded for this entry: `Q44N`
Result: 0.983
